Biological target: UniProt Q14833
Sequence (Q14833 whole entry): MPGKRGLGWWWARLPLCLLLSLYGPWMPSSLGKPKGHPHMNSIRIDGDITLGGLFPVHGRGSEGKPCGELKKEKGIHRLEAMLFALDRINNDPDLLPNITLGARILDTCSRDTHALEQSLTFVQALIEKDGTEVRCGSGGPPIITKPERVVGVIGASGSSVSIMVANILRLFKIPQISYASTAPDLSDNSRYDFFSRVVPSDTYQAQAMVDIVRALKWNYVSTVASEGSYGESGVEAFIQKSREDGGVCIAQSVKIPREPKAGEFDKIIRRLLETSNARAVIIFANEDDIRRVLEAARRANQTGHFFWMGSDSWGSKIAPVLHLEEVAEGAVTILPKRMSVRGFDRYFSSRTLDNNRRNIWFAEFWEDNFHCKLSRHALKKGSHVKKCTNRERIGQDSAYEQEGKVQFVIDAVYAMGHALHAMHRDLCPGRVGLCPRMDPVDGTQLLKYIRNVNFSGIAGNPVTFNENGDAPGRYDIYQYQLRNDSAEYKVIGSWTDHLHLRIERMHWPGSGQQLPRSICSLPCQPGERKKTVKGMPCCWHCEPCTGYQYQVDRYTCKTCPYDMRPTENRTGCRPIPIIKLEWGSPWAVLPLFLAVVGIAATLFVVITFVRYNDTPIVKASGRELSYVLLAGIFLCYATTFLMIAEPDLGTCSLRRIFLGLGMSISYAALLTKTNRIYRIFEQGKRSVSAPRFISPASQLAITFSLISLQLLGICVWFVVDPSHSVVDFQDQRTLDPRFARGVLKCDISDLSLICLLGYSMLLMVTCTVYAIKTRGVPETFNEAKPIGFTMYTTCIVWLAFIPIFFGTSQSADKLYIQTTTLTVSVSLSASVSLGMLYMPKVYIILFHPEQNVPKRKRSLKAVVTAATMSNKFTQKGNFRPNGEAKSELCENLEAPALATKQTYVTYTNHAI
Assay: Compound was evaluated for the inhibition of forskolin stimulated cAMP accumulation in CHO cells expressing hmGluR4a
Assay type: functional, cell-based
pEC50 listing for selected compounds.
pEC50 is a log-scale quantity: -log10 of the concentration expressed in molar.

NC(C(=O)O)c1ccc(P(=O)(O)O)cc1 (single isomer, unassigned; (+)) :: 5.49

We now examine a further compound.
I am curious: what pEC50 value has been reported for NC(C(=O)O)c1ccc(P(=O)(O)O)cc1 (stereo in doubt) ?
5.28
